Origin of measurements: PubChem BioAssay (EPA / NIEHS)

# Test details: ATG_NFI_CIS: Attagene CIS-FACTORIAL HepG2 Assay for human Nuclear Factor I (NFI) (AID 2282989)
# Conditions used: HepG2 cis-regulatory reporter, NFI response element transcription; actives raise or lower the signal
Activity calls are given as the source filed them. The calls were made as follows: active = hit-call score of the fitted dose curve at least 0.9, where 1 is the maximum; inactive = score below 0.9.
Form entry, call: pick from 1 (active), -1 (inactive)

Hello, I am checking results. What call was entered for O=[N+]([O-])c1ccc(Oc2ccc(Cl)cc2Cl)cc1 ?
-1

Outcome? CCCCCCCCn1sccc1=O
1

// outcome(item) with item = COP(=S)(OC)SCN1C(=O)c2ccccc2C1=O
-1

For Cn1cc(-c2ccccc2)c(=O)c(-c2cccc(C(F)(F)F)c2)c1 , which call appears in the assay record?
-1

---

# Test details: APR_HepG2_P-H2AX_24hr: Apredica 24-hour HepG2 Assay for H2AX Phosphorylation (AID 2282920)
# Conditions used: high-content imaging, actives raise or lower the signal
Active and inactive are the calls of the source. Rule for the calls: active = hit-call score of the fitted dose curve at least 0.9, where 1 is the maximum; inactive = score below 0.9.
Result type: AC50

Use these answered entries as a reference point.
{"Molecule": "Nc1ccc(Cc2ccc(N)cc2)cc1", "AC50": "inactive"}
{"Molecule": "c1ccc(NNc2ccccc2)cc1", "AC50": "inactive"}
{"Molecule": "CCCCOC(=O)c1ccccc1C(=O)OCc1ccccc1", "AC50": "inactive"}
{"Molecule": "Cc1ccc(N=C=O)cc1N=C=O", "AC50": "inactive"}
{"Molecule": "CO[C@@H]1[C@H](OC(=O)NC(=O)CCl)CC[C@]2(CO2)[C@H]1[C@@]1(C)O[C@@H]1CC=C(C)C", "AC50": "inactive"}

// AC50 lookup, key: ClCCOCCCl
inactive

Would you kindly share the measured AC50 for CC(O)CCO (stereo unspecified) ?
inactive

---

# Read-out: Interferon-gamma inducible Protein 10 (IP10), CXCL10 (gene 3627)
# Test details: BSK_BE3C_IP10: BioMAP Diversity Plus: BE3C Assay for Interferon-gamma inducible Protein 10 (IP10) Biomarker Activity (AID 2283034)
# Conditions used: primary human bronchial epithelial cells; actives raise or lower the signal
Calls of active or inactive are those of the source. How the source made its calls: active means hit-call score of the fitted dose curve at least 0.9, where 1 is the maximum; inactive means score below 0.9.
Result type: AC50

Reference set, count: 5
{"Compound": "C=CCc1ccc2c(c1)OCO2", "Result": "inactive"}
{"Compound": "CC(C)(C)OOC(C)(C)CCC(C)(C)OOC(C)(C)C", "Result": "inactive"}
{"Compound": "Brc1ccc(Oc2ccccc2)cc1", "Result": "inactive"}
{"Compound": "O=C(N[C@H](c1ccccc1)[C@@H]1CN2CCC1CC2)c1c(Cl)ccc(C(F)(F)F)c1Cl", "Result": "21.9 µM (active)"}
{"Compound": "N#CC(Br)(Br)C(N)=O", "Result": "inactive"}

What AC50 value was documented for this compound, Clc1ccc(C(c2ccc(Cl)cc2)C(Cl)(Cl)Cl)cc1 ?
inactive

Would you mind telling me what AC50 value was observed for Clc1ccc(Cl)c(Cl)c1 ?
inactive

Field request: AC50 | item: N#CC(Br)Br
inactive

Give the measured AC50 of Cc1ccc([N+](=O)[O-])cc1 .
inactive

---

# Read-out: Monokine induced gamma interferon (MIG), CXCL9 (gene 4283)
# Test details: BSK_hDFCGF_MIG: BioMAP Diversity Plus: hDFCGF Assay for Monokine induced gamma interferon (MIG) Biomarker Activity (AID 2283063)
# Conditions used: primary human foreskin fibroblasts; actives raise or lower the signal
Activity calls are given as the source filed them. How the source made its calls: active means hit-call score of the fitted dose curve at least 0.9, where 1 is the maximum; inactive means score below 0.9.
Result type: AC50

Would you please look over these solved cases?
{"Compound": "CCCCCOC(=O)c1ccccc1C(=O)OCCCCC", "Result type": "AC50", "Result": "inactive"}
{"Compound": "CCCCCCCCOC(=O)c1ccc(C(=O)OCCCCCCCC)c(C(=O)OCCCCCCCC)c1", "Result type": "AC50", "Result": "inactive"}
{"Compound": "COc1cc(C=O)cc2c1[C@H](COC(N)=O)[C@]1(OC(C)=O)ON2C[C@H]2[C@@H]1N2C(C)=O", "Result type": "AC50", "Result": "1.25 µM (active)"}
{"Compound": "C=CCc1ccc2c(c1)OCO2", "Result type": "AC50", "Result": "inactive"}
{"Compound": "CS(=O)(=O)NC(=O)c1cc(Oc2ccc(C(F)(F)F)cc2Cl)ccc1[N+](=O)[O-]", "Result type": "AC50", "Result": "inactive"}
{"Compound": "Oc1ccc2ccc3cccc4ccc1c2c34", "Result type": "AC50", "Result": "7.57 µM (active)"}

# input compound: O=Cc1ccco1 ; wanted: its AC50
inactive

May I ask what AC50 has been recorded for C[C@]12C=CC3=C4CCC(=O)C=C4CC[C@H]3[C@@H]1CC[C@@H]2O ?
inactive

So what does the record say about AC50 for CCC12COCN1COC2 ?
inactive

So what does the record say about AC50 for Nc1ccc(Cl)cc1N ?
inactive

Can you look up the measured AC50 of CC(C)(C)C(O)(CCc1ccc(Cl)cc1)Cn1cncn1 (stereo not given) for me?
inactive
